Molecular target: T1, human Dll1 (human, UniProt O00548 18-723)
T1 construct: whole, on cells
T1 sequence (looked up): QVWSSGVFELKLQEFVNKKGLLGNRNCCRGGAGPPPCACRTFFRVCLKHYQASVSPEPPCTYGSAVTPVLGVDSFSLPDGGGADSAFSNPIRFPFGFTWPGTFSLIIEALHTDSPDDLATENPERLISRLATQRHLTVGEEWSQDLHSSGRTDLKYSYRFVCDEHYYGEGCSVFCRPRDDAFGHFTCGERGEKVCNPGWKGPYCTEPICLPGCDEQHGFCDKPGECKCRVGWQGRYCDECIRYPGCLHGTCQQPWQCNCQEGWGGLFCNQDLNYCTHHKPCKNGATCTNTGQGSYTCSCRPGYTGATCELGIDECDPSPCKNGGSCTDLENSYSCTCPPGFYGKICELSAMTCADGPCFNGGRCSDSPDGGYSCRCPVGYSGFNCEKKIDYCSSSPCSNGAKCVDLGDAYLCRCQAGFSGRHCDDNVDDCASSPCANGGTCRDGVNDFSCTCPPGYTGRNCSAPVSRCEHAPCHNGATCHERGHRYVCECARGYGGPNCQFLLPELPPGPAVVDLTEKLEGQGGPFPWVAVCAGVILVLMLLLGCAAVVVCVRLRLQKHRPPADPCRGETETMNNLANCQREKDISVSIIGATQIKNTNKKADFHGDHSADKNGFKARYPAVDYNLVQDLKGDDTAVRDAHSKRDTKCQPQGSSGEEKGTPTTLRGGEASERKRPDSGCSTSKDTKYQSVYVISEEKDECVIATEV
Assay: FACS, 15 µg/ml, 293T cells with human Dll1
assay-metric: Dll1/293T X Geo mean
// no unit, no text: just the number

Worked set:
* 1E4 (antibody, IgG2, V domains shown, Fully human; also used where no isotype is printed) VH: QVQLVESGGGVVQPGRSLRLSCAASGFTFSSYGMHWVRQAPGKGLEWVAVTWYDGSNKYYADSVKGRFTISRDNSKNTLYLQMNSLRAEDTAVYYCARENCSSTSCYYTVTTDYYGMDVWGQGTTVTVSS VL: EIVLTQSPGTLSLSPGERATLSCRASQRVSSSYLTWYQQKPGQAPRLLIYGASIRATGIPDRFSGSGSGTDFTLTITRLEPEDFAVYFCQQCYTSPITFGQGTRLDIK | 31.7
* 21H3 (antibody, IgG4, V domains shown, Fully human; used for IgG4 rows and where no isotype is printed; also called 21H3 IgG4) VH: QVQLVQSGAEVKKPGASVKVSCKASGYTFTNYGITWVRQAPGQGPEWMGWISAYNGNTNYAQKLQDRVTVTTDTSTSTAYMELRSLRSDDTAVYYCARDRVPRIPVTTEAFDIWGQGTMVTVSS VL: QSVLTQPPSASGTPGQRVTISCSGSSSNIGSYFVYWYQQLPGTAPKLLIYRNNQRPSGVPDRFSGSESGTSASLAISGLRSEDEADYYCAAWDDSLSGHWVFGGGTRLTVL | 32.4

# input binder: 20G8 (antibody, IgG4, V domains shown, Fully human; also used where no isotype is printed) VH: QVQLVQSGAEVKKPGASVKVSCKASGYTFTSYGISWVRQAPGQGLEWMGWISVYNGNTNYAQKLQGRVTMTTDTSTSTAYMEVRSLRSDDTAVYYCARDRVPRIPRTTEAFDIWGRGTMVTVCS VL: QSVLTQPPSASGTPGQRVTISCSGSSSNIGSYYVYWYQQLPGTAPKLLIYRDNQRPSGVPDRFSGSKSGTSASLAIRGLRSDDEADYYCAAWDDSLSGHWVFGGGTKLTVL ; wanted: its Dll1/293T X Geo mean
40

Values compiled from patent US20100196385A1.
